Target: acetylcholine muscarinic M1 receptor (Homo sapiens, UniProt P11229)
Construct: expressed in transfected cells; host or cells: CHOnfat cells (CHO cells with an NFAT reporter) expressing hM1, kept under Geneticin selection
Sequence (P11229 whole entry): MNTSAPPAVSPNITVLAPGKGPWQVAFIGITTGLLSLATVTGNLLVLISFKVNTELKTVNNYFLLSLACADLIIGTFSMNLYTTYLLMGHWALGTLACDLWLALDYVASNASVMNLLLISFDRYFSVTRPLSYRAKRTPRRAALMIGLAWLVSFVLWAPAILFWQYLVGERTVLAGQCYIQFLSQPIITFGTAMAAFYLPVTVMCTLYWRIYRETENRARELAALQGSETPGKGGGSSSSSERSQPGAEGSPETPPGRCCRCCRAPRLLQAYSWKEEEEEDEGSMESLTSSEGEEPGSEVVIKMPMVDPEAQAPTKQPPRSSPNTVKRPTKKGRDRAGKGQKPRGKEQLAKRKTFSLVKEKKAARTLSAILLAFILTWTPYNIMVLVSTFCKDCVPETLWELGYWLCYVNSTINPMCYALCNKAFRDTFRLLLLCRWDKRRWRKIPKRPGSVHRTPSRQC
Experiment: muscarinic FLIPR assay: intracellular calcium in CHOnfat/hM1 cells, potentiation of EC20 acetylcholine
Format: cell-based
Conditions: Table 2; CHOnfat/hM1 cells, FLIPR, EC20 acetylcholine (3 nM final); read-out: M1 Pot.
pEC50: −log10 of the molar value.
OUTCOME_MEASURE: pEC50

{"columns": ["COMPOUND", "ASSAY_TARGET", "pEC50"],
 "data": [
  ["O=C1c2cc(CN3CCCC(F)(F)C3)c3cccnc3c2CN1C1CCCCC1O (centres unmarked) [Example 122]", "acetylcholine muscarinic M1 receptor (Homo sapiens, UniProt P11229)", 7.07],
  ["O=C1c2cc(CN3CCOCC3)c3cccnc3c2CN1C1CCCCC1O (centres unmarked) [Example 99]", "acetylcholine muscarinic M1 receptor (Homo sapiens, UniProt P11229)", 6.82],
  ["CC1c2c(cc(CN3CCC(C#N)(c4ccccc4)CC3)c3cccnc23)C(=O)N1C1CCCCC1O (centres unmarked) [Example 137]", "acetylcholine muscarinic M1 receptor (Homo sapiens, UniProt P11229)", 6.32],
  ["O=C1c2cc(CN3CCN(c4cccnc4)CC3)c3cccnc3c2CN1C1CCCCC1O (centres unmarked) [Example 162]", "acetylcholine muscarinic M1 receptor (Homo sapiens, UniProt P11229)", 7.55],
  ["O=C1c2cc(CN3CCCC(F)C3)c3cccnc3c2CN1C1CCCCC1O (centres unmarked) [Example 121]", "acetylcholine muscarinic M1 receptor (Homo sapiens, UniProt P11229)", 6.97]
]}

(a) CC1c2c(cc(CN3CCC(F)(F)CC3)c3cccnc23)C(=O)N1[C@@H]1COCC[C@@H]1O (some centres unmarked) [Example 106]
(b) CC1c2c(cc(CN3CCC(F)(C#N)CC3)c3cccnc23)C(=O)N1C1CCCCC1O (single isomer, unassigned) [Example 119]
(c) O=C1c2cc(CN3CCN(c4ccc(F)cc4)CC3)c3cccnc3c2CN1C1CCCCC1O (centres unmarked) [Example 171]
Ordering: ascending pEC50. Enter labels, ranked according to the request.
a, b, c
(a: 6.96, b: 7.36, c: 7.64)

====

Molecular target: acetylcholine muscarinic M1 receptor (Homo sapiens)
Construct: expressed in transfected cells; host or cells: CHOnfat cells (CHO cells with an NFAT reporter) expressing hM1, kept under Geneticin selection
Experiment: muscarinic FLIPR assay: intracellular calcium in CHOnfat/hM1 cells, potentiation of EC20 acetylcholine
Type: cell-based
Settings: Table 2; CHOnfat/hM1 cells, FLIPR, EC20 acetylcholine (3 nM final); read-out: M1 Pot.
OUTCOME_MEASURE: EC50 (nM)

Solved entries:
{"columns": ["COMPOUND", "EC50, nM"],
 "data": [
  ["CC1c2c(cc(CN3CCN(c4ccccn4)CC3)c3cccnc23)C(=O)N1C1CCCCC1O (stereo not shown) [Example 167]", 59],
  ["O=C1c2cc(CN3CCC(F)(c4ccccn4)CC3)c3cccnc3c2CN1C1CCCCC1O (stereo not shown)", 11],
  ["O=C1c2cc(CN3CCCC3)c3cccnc3c2CN1C1CCCCC1O (stereo not shown)", 5200],
  ["O=C1c2cc(CN3CCCCC3)c3cccnc3c2CN1[C@H]1CCCC[C@@H]1O", 2900],
  ["O=C1c2cc(CN3CCC(F)(C#Cc4ccc(F)cc4)CC3)c3cccnc3c2CN1C1CCCCC1O (stereo not shown)", 129]
]}

(I) O=C1c2cc(CN3CCN(c4ccncc4)CC3)c3cccnc3c2CN1C1CCCCC1O (stereo not shown)
(II) CC1(O)CCN(Cc2cc3c(c4ncccc24)CN(C2CCCCC2O)C3=O)CC1 (stereo not shown)
(III) CC1c2c(cc(CN3CCC(F)(c4ccccn4)CC3)c3cccnc23)C(=O)N1[C@@H]1CCCC[C@@H]1O (stereo partly shown)
(IV) Cn1cc(N2CCN(Cc3cc4c(c5ncccc35)CN([C@H]3CCCC[C@@H]3O)C4=O)CC2)cn1
Ordering: ascending EC50. Enter labels, ranked according to the request.
IV, III, I, II
(IV: 42 nM, III: 70 nM, I: 110 nM, II: 930 nM)

(a) CC1c2c(cc(CN3CCC(c4ccccc4)CC3)c3cccnc23)C(=O)N1C1CCCCC1O (stereo not shown) [Example 140]
(b) CC1c2c(cc(CN3CCC(c4ccncc4)CC3)c3cccnc23)C(=O)N1C1CCCCC1O (stereo not shown) [Example 143]
a or b : whose EC50 is greater? Kindly give the label for the entry you pick.
a
(a: 3200 nM, b: 89 nM)

(1) CC1c2c(cc(CN3CCN(c4ccc(F)cc4)CC3)c3cccnc23)C(=O)N1C1CCCCC1O (stereo not shown) [Example 172]
(2) O=C1c2cc(CN3CCC(F)(F)C3)c3cccnc3c2CN1C1CCCCC1O (stereo not shown)
1 or 2 : whose EC50 is greater? Kindly give the label for the entry you pick.
1
(1: 480 nM, 2: 151 nM)
